Target: human EGFR exon 20 insertion NPG (H773_V774insNPG) (Homo sapiens, UniProt P00533, INS773NPG, cells depend on it)
Sequence (P00533 with tags, fused parts or gaps INS773NPG limits assumed): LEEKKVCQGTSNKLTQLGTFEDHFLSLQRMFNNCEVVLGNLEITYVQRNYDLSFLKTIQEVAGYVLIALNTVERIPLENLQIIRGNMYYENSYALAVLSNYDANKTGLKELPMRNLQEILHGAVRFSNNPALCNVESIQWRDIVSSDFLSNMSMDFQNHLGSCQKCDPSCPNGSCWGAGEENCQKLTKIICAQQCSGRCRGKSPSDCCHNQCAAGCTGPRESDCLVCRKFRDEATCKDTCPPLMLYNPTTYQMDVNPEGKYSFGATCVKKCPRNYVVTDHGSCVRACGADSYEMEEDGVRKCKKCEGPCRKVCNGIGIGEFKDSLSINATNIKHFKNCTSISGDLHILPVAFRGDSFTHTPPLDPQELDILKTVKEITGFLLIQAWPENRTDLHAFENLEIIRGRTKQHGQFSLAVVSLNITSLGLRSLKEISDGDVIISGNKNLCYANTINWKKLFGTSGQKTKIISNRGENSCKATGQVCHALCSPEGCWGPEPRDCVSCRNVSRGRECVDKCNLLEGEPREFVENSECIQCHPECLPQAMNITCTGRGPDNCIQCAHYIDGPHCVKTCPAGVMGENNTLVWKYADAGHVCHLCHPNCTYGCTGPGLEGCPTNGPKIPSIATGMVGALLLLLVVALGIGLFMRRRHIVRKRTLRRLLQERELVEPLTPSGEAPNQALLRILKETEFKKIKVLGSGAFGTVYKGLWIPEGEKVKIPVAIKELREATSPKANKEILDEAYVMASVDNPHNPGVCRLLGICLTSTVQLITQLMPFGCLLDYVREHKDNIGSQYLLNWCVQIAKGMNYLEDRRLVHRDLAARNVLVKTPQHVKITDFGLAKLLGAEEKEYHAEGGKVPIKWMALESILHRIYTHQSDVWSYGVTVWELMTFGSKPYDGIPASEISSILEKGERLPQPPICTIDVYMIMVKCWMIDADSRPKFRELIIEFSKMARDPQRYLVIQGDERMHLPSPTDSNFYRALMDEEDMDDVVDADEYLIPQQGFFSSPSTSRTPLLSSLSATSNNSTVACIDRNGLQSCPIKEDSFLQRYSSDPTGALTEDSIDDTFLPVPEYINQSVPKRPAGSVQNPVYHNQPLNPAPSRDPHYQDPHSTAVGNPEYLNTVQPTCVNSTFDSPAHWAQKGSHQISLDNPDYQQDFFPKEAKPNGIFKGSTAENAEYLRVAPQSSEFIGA
Experiment: Ba/F3-EGFR-Exon20-NPG cell anti-proliferative assay (CellTiter 96 MTS, 72 h)
Settings: read-out: EGFR exon 20 NPG insertion IC50
PARAMETER MEASURED: IC50

| COMPOUND STRUCTURE STRING | IC50 |
| --- | --- |
| C=CC(=O)Nc1ccc(OC)c(Nc2ncc(Cl)c(-c3cn(C)c4cc(OCCN5CCN(C)CC5)ccc34)n2)c1 | 0.1 to 0.5 µM |
| C=CC(=O)Nc1cc(Nc2ncc(C(=O)OC(C)C)c(-c3coc4ccccc34)n2)c(OC)cc1N(C)C[C@H]1CCCN1C | < 0.1 µM |
| C=CC(=O)Nc1cc(Nc2ncc(C(=O)OC(C)C)c(-c3cn(C)c4ncccc34)n2)c(OC)cc1N(C)CCN(C)C | < 0.1 µM |
| C=CC(=O)Nc1cc(Nc2ncc(C(=O)OC(C)C)c(-c3cn(C)c4ccccc34)n2)c(OC)cc1N(C)C[C@H]1CCCN1C | < 0.1 µM |

The compound identified as C=CC(=O)Nc1cc(Nc2ncc(Cl)c(-c3cnn4ccccc34)n2)c(OC)cc1OCCN(C)C registered its IC50 at < 0.1 µM

The compound identified as C=CC(=O)Nc1cc(Nc2ncc(C(=O)OC(C)C)c(-c3cnc4ccccn34)n2)c(OC)cc1N(C)CCN(C)C registered its IC50 at < 0.1 µM

The compound identified as C=CC(=O)Nc1cc(Nc2ncc(NC(=O)C(C)(C)C)c(-c3cn(C)c4ccccc34)n2)c(OC)cc1N(C)CCN(C)C registered its IC50 at 0.1 to 0.5 µM

Hello, the source for this data is patent US10227342B2, in case you need it.
